experiment: protein stability index of a GFP-peptide fusion (yeast GPS) (PSI 1-4); higher = more stable; sorted into four equal gates, so the index is relative within each strain; conditions: ubr1∆
readoutType: protein stability index
Give bare numbers.

These solved cases illustrate the format of a correct answer.
residueSequence	protein stability index
KKKAFTKYSAKYAQDGA [RPL3]	3.04
FELIELVTPKSFLFDVL [NUT1]	1.06
ESFESYHNLTTHNSYEK [RPN6]	3.28

The following sequences each have a reported value; give each one's protein stability index.
1. RMKQYLKTKLLEEVEGS [RPB7]
2. LAMVIIKEFVDDLKKDH [DSN1]
3. SSLEELLLKDQQTAKKL [ECM29]
4. TTTATPHANPITHAHSL [PGD1]
5. GKPTVNKKPKNKKKGRK [SRP72]
6. VVVVLEEPSASIMVELK [SIR3]
7. IEPLEINIQSFKDVEHI [BRR2]
8. ESGEDEAEFSLRELSCC [RRP46]

result:
1: 3.24; 2: 2.85; 3: 2.95; 4: 3; 5: 3.24; 6: 2.86; 7: 2.67; 8: 3.16

====

test: protein stability index of a GFP-peptide fusion (yeast GPS) (PSI 1-4); higher = more stable; sorted into four equal gates, so the index is relative within each strain; settings: pdr5∆
Using protein stability index as the sorting value, the categories are bin 1 = under 2, bin 2 = from 2 up to 3, bin 3 = 3 and over

Known results for sequences:
residueSequence	discreteLabel
IHIQETQEFSKNYTTET [SIR3]	bin 3
PIYTGDGWVKLTYKSEL [YMR153W/NUP53]	bin 2
LLKSTGLHPFEVAQLGS [RPB4]	bin 1
ANNNGSNLQRAQNVPMN [GAL11]	bin 3
KGKYRNRRWTQRRGPLV [RPL4A]	bin 3
PQYINYSSIPSLQDSII [SSN2]	bin 2
LVRSIIAFDDLIENKIQ [RPN8]	bin 1
SKRGNDKKHFNNKNKRV [RPC53]	bin 2
RINSTDEDLHEFQIEDA [SRB8]	bin 2
SSRFIKGGSLYGLGLIY [RPN2]	bin 2

query: Which category does the recorded protein stability index put KKMVYVLDSMTKEELES [SRP54] in?
result: bin 2

query: Which category does the recorded protein stability index put MASRVDETTVPSYYYYV [ROX3] in?
result: bin 2

query: Which category does the recorded protein stability index put FVNGVATSFSRKKARTF [FAS2] in?
result: bin 1

query: Which category does the recorded protein stability index put KFKLLNGLAIRRAAYGV [RPS3] in?
result: bin 2

query: Which category does the recorded protein stability index put NRSVVYFKLDLTSDLVY [RRI2] in?
result: bin 1

query: Which category does the recorded protein stability index put SNEFVPNTSDNNNNSNN [SWI1] in?
result: bin 2

query: Which category does the recorded protein stability index put DLFSNNNYNSRIQLMND [MED1] in?
result: bin 2

query: Which category does the recorded protein stability index put MKNENANPKKLALMTAH [CDC53] in?
result: bin 2

query: Which category does the recorded protein stability index put KIFIAVVWYQRLTMGNV [RRI2] in?
result: bin 1

query: Which category does the recorded protein stability index put RNNSKSVLLKKLGSVRV [SRP72] in?
result: bin 1

query: Which category does the recorded protein stability index put EKKLEDYCRILSDIETA [YGL172W/NUP49] in?
result: bin 3

query: Which category does the recorded protein stability index put SPNPTLQPVIPGGAASK [SNF5] in?
result: bin 3

query: Which category does the recorded protein stability index put LVSEKIINSTALMKEKD [RPC82] in?
result: bin 3

query: Which category does the recorded protein stability index put SQESINQKLALVIKSGK [RPL30] in?
result: bin 2

query: Which category does the recorded protein stability index put IAYSDSQSSNANICLTF [SIN4] in?
result: bin 2

query: Which category does the recorded protein stability index put PLINRLKHYNGYDINYI [SWI1] in?
result: bin 2

This collection of values is drawn from the supplement of paper PMC9732359.
